Reported CLint scaled at 1 µM values for a set of molecules
- assayText: Hepatocyte intrinsic clearance and metabolite profile
- Assay type: in vitro ADME, human
- assaySetup: human; read-out: CLint in vitro
# output: numeric value plus its unit

molecule	recordedEndpoint	recordedMeasurement
CCOc1ccc2ccc(=O)oc2c1 [7-ethoxycoumarin, reference compound]	CLint scaled at 1 µM	258 mL/min/kg

Then this molecule:
Input CSc1ccc(OCc2ncc([N+](=O)[O-])n2C)cc1 , output reported CLint scaled at 1 µM.
257 mL/min/kg

====

- assayText: Lipophilicity (logD)
- Assay type: physicochemical
- assaySetup: pH 7.4
Documented logD across a set of compounds
Give the figure by itself; no unit, no explanation.

compound	logD
Cn1c([N+](=O)[O-])cnc1COc1ccc([S+](C)[O-])cc1 (stereo not drawn) [Fexinidazole sulfoxide]	0.52
Cn1c([N+](=O)[O-])cnc1COc1ccc(S(C)(=O)=O)cc1	0.74

Then there is this compound:
Please supply the value of reported logD for the item CSc1ccc(OCc2ncc([N+](=O)[O-])n2C)cc1
2.83

The values you see were collected from paper PMC3006138.
